# procedure_text: Single oral dose pharmacokinetics of curcumin in plasma and mesenteric lymph
# Type: in vivo, Sprague-Dawley rats
# measurement_conditions: Sprague-Dawley, rat, plasma, 75 mg/kg
outcome_measure: AUC(0-t) (ng·h/mL)
# output: bare number, implied unit ng·h/mL

Returns the measured AUC(0-t) for the input molecule. Input: COc1cc(/C=C/C(=O)CC(=O)/C=C/c2ccc(O)c(OC)c2)ccc1O [Standard, Curcumin]
562

###

# procedure_text: Single oral dose pharmacokinetics of curcumin in plasma and mesenteric lymph
# Type: in vivo, Sprague-Dawley rats
# measurement_conditions: Sprague-Dawley, rat, plasma, 75 mg/kg
outcome_measure: Cmax (ng/mL)
Quick reminder: number only, in ng/mL, skip the unit.

Given COc1cc(/C=C/C(=O)CC(=O)/C=C/c2ccc(O)c(OC)c2)ccc1O [Standard, Curcumin] , state its recorded Cmax.
190
